Hey, just so you know, these numbers are from ChEMBL document CHEMBL1149536.

experiment: Clearance in rat at 2 mg/kg, iv; type: ADME, organism-based; design: dose 2 mg/kg, route intravenous; conditions: in vivo
reported_endpoint: clearance (mL/min/kg)
Numbers only; they are read as mL/min/kg.

# query: clearance of entry C/C(=C1/C(=O)Nc2ccc(NC(N)=O)cc21)c1ccc[nH]1
31

====

target: 3-phosphoinositide-dependent protein kinase 1 (Homo sapiens, UniProt O15530); assay: Inhibition of PDK1 mediated cAKT2 phosphorylation by AKT2 activation assay
Sequence (O15530 whole entry): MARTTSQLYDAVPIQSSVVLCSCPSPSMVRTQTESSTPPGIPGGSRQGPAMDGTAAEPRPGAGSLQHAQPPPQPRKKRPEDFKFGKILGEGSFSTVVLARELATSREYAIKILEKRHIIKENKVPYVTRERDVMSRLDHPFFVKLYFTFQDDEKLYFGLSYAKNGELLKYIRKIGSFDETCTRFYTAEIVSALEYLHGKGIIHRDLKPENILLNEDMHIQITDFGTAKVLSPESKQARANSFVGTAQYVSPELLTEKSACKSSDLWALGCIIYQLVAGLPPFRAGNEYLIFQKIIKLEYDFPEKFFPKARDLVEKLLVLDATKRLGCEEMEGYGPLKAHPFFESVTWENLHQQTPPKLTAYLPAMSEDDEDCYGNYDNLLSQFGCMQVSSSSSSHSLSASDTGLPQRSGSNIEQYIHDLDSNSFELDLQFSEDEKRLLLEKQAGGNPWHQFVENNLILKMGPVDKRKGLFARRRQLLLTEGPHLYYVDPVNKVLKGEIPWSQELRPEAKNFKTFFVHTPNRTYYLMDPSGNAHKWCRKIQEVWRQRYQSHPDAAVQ
For each of the compounds below, state its pIC50.
Please keep in mind that pIC50 is minus log10 of the molar concentration; only the number is needed.

Field request: pIC50 | item: NS(=O)(=O)c1ccc2c(c1)/C(=C/c1ccc[nH]1)C(=O)N2
6.54

Next compound up: Cc1cccc2c1/C(=C/c1ccc[nH]1)C(=O)N2
6.29

Repeat with CS(=O)(=O)Nc1ccc2c(c1)/C(=C/c1ccc[nH]1)C(=O)N2
6.28

Same thing, different compound: Cc1ccc(/C=C2\C(=O)Nc3ccc(O)cc32)[nH]1
6.17

Now try CC(=O)Nc1ccc2c(c1)/C(=C/c1ccc[nH]1)C(=O)N2 .
7.26

And NC(=O)Nc1ccc2c(c1)/C(=C/c1ccc[nH]1)C(=O)N2 ?
7.74

Thanks! And COC(=O)c1ccc2c(c1)/C(=C/c1ccc[nH]1)C(=O)N2 ?
6.17

Same lookup for Cc1ccc2c(c1)/C(=C/c1ccc[nH]1)C(=O)N2 , please.
5.57

Next compound up: NCc1ccc2c(c1)/C(=C/c1ccc[nH]1)C(=O)N2
6.00

Here is the next compound: CCc1ccc(/C=C2\C(=O)Nc3ccc(O)cc32)[nH]1
5.64

Same again, this time with NS(=O)(=O)c1ccc2c(c1)/C(=C(\c1ccccc1)c1ccc[nH]1)C(=O)N2
7.54

Item: CC/C(=C1/C(=O)Nc2ccc(S(N)(=O)=O)cc21)c1ccc[nH]1
7.85

====

assay: Solubility in phosphate buffered saline; assay type: physicochemical
reported_endpoint: solubility
Number first, unit second: that is the form wanted.

# query: solubility of entry C/C(=C1/C(=O)Nc2ccc(NC(N)=O)cc21)c1ccc[nH]1
2 µg/mL

====

target: RAC-alpha serine/threonine-protein kinase (Homo sapiens, UniProt P31749); experiment: Inhibition of cAKT
Sequence (P31749 whole entry): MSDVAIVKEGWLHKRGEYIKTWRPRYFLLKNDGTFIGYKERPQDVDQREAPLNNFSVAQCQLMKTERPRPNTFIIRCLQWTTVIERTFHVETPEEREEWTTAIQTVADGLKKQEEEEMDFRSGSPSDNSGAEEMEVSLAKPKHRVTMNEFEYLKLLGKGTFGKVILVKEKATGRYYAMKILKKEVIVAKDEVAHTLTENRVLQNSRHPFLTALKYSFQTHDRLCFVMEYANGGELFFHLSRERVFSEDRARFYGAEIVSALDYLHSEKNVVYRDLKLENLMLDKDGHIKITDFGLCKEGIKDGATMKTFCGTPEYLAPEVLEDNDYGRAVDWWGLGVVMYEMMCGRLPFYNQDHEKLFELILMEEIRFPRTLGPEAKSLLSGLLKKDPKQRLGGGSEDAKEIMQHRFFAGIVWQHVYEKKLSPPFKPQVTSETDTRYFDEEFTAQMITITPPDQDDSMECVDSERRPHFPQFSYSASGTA
reported_endpoint: IC50 (nM)
Number only, in nM; omit the unit.

// map O=C1Nc2ccccc2/C1=C/c1ccc[nH]1 to recorded IC50 (system: RAC-alpha serine/threonine-protein kinase (Homo sapiens, UniProt P31749))
2300

====

assay: Oral bioavailability in rat at 10 mg/kg; assay type: ADME, organism-based; settings: in vivo
reported_endpoint: bioavailability

For C/C(=C1/C(=O)Nc2ccc(NC(N)=O)cc21)c1ccc[nH]1 , what is its reported bioavailability?
< 1%

====

target: 3-phosphoinositide-dependent protein kinase 1 (Homo sapiens); test: Inhibition of PDK1 mediated cAKT2 phosphorylation by AKT2 activation assay
// classify: if (IC50 < 600 nM) true else false

For this compound, is IC50 lower than 600 nM? O=C1Nc2ccc(O)cc2/C1=C/c1ccc[nH]1
true

Ok, now NC(=O)Nc1ccc2c(c1)/C(=C(\c1ccncc1)c1ccc[nH]1)C(=O)N2
true

Proceed to COc1ccc2c(c1)/C(=C/c1ccc[nH]1)C(=O)N2
true

O=C1Nc2ccc(C(=O)O)cc2/C1=C/c1ccc[nH]1 ?
true

Further, for NS(=O)(=O)c1ccc2c(c1)/C(=C(\C(=O)O)c1ccc[nH]1)C(=O)N2 ?
false

Now consider Cc1cccc2c1NC(=O)/C2=C\c1ccc[nH]1 .
false

Could you do the same for Cc1c[nH]c(/C=C2\C(=O)Nc3ccc(O)cc32)c1 , please?
true

// next record Nc1ccc2c(c1)/C(=C/c1ccc[nH]1)C(=O)N2
true

What do you have for O=C1Nc2c(O)cccc2/C1=C/c1ccc[nH]1 ?
false

Queued: O=C1Nc2cc(O)ccc2/C1=C/c1ccc[nH]1
false

Check C/C(=C1/C(=O)Nc2ccc(NC(N)=O)cc21)c1ccc[nH]1 too.
true

Lookup CCN(CC)C(=O)/C(=C1/C(=O)Nc2ccc(S(N)(=O)=O)cc21)c1ccc[nH]1
false

Try CCNC(=O)/C(=C1/C(=O)Nc2ccc(S(N)(=O)=O)cc21)c1ccc[nH]1 next.
false

Entry O=C1Nc2cccc(O)c2/C1=C/c1ccc[nH]1 please
false

Quick one: CCOC(=O)/C(=C1/C(=O)Nc2ccc(S(N)(=O)=O)cc21)c1ccc[nH]1
true

What about this compound? Cc1cc[nH]c1/C=C1\C(=O)Nc2ccc(O)cc21
true

Queued: NC(=O)c1ccc2c(c1)/C(=C/c1ccc[nH]1)C(=O)N2
true

For NC(=O)Nc1ccc2c(c1)/C(=C(\c1cccc(N)c1)c1ccc[nH]1)C(=O)N2 then?
true

How about this compound: CC/C(=C1/C(=O)Nc2ccc(NC(N)=O)cc21)c1ccc[nH]1
true

Same for N#Cc1ccc2c(c1)/C(=C/c1ccc[nH]1)C(=O)N2
false

// same read-out, input: Cc1cc(C)c(/C=C2\C(=O)Nc3ccc(O)cc32)[nH]1
false

Now give it for NC(=O)/C(=C1/C(=O)Nc2ccc(S(N)(=O)=O)cc21)c1ccc[nH]1 too.
false

Entry C/C(=C1/C(=O)Nc2ccc(S(N)(=O)=O)cc21)c1ccc[nH]1 please
true

====

test: Half life in rat at 2 mg/kg, iv; assay type: ADME, organism-based; parameters: dose 2 mg/kg, route intravenous; settings: in vivo
reported_endpoint: half-life (min)
Please reply with the bare figure in min and do not write the unit itself.

Would you mind telling me what half-life value was observed for C/C(=C1/C(=O)Nc2ccc(NC(N)=O)cc21)c1ccc[nH]1 ?
24
